# Test system: U2OS
# method notes: Induction of intracellular ROS accumulation in human U2OS cells at 5 uM incubated for 24 hrs by DCFDA-AM probe-based fluorimetrical analysis relative to control
# Format: functional, cell-based
Calls of active or inactive are those of the source. No cut-off for these calls is given here.
The categories you may choose from are 1 (yes) (active), 0 (no) (inactive)

Worked examples follow.
Asked: Assay result, entry COc1cccc2c1C(=O)c1c(O)c3c(c(O)c1C2=O)C[C@@](O)(C(=O)COC(=O)COc1ccc(-c2cc(=S)ss2)cc1)C[C@@H]3O[C@H]1C[C@H](N)[C@H](O)[C@H](C)O1.Cl — outcome?
Given back: 0 (no)

Asked: How was COc1cccc2c1C(=O)c1c(O)c3c(c(O)c1C2=O)C[C@@](O)(C(=O)COC(=O)c1ccc(-c2cssc2=S)cc1)C[C@@H]3O[C@H]1C[C@H](N)[C@H](O)[C@H](C)O1.Cl classified in this test?
Given back: 0 (no)

Asked: GET /call?item= COc1cccc2c1C(=O)c1c(O)c3c(c(O)c1C2=O)C[C@@](O)(C(=O)CO)C[C@@H]3O[C@H]1C[C@H](N)[C@H](O)[C@H](C)O1.Cl [DOXORUBICIN HYDROCHLORIDE] returns the recorded outcome of this test.
Given back: 1 (yes)

Asked: Assay outcome for COc1cccc2c1C(=O)c1c(O)c3c(c(O)c1C2=O)C[C@@](O)(C(=O)COC(=O)c1ccc(-c2ssc(=S)c2-c2ccccc2)cc1)C[C@@H]3O[C@H]1C[C@H](N)[C@H](O)[C@H](C)O1.Cl : what was it?
Given back: 0 (no)

Asked: In this assay, the call recorded for C=CCSSCCC(=O)OCC(=O)[C@]1(O)Cc2c(O)c3c(c(O)c2[C@@H](O[C@H]2C[C@H](N)[C@H](O)[C@H](C)O2)C1)C(=O)c1c(OC)cccc1C3=O.Cl was what?
Given back: 0 (no)

Asked: Just curious, what result did C=CCSCC(NC(C)=O)C(=O)OCC(=O)[C@]1(O)Cc2c(O)c3c(c(O)c2[C@@H](O[C@H]2C[C@H](N)[C@H](O)[C@H](C)O2)C1)C(=O)c1c(OC)cccc1C3=O.Cl (stereo partly drawn) get here?
Given back: 0 (no)

Asked: What call does the record list for COc1cccc2c1C(=O)c1c(O)c3c(c(O)c1C2=O)C[C@@](O)(C(=O)COC(=O)c1ccc(C(N)=S)cc1)C[C@@H]3O[C@H]1C[C@H](N)[C@H](O)[C@H](C)O1.Cl ?
Given back: 0 (no)

Continue with the molecule presented below.
Asked: Field: outcome | Entry: COc1cccc2c1C(=O)c1c(O)c3c(c(O)c1C2=O)C[C@@](O)(C(=O)COC(=O)c1csc(=S)s1)C[C@@H]3O[C@H]1C[C@H](N)[C@H](O)[C@H](C)O1.Cl
Given back: 0 (no)
